Molecular target: T1, recombinant human IL-6 (human, UniProt P05231 30-212)
T1 construct: Flowed in solution over the captured antibodies
T1 sequence (P05231 30-212 limits assumed): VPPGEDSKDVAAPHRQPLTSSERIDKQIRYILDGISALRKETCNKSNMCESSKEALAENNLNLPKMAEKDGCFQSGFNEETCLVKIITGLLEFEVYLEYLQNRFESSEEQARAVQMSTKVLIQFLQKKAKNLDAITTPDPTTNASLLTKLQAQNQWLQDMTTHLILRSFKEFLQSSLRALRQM
Experiment: SPR (Biacore), supernatant IgG on Protein A, 25 C
Experimental: Antibodies were captured on a Protein A chip (GE) by injecting 1:20 dilution of cell supernatant at 10 μL/min for 60 seconds. […] The sensor chip was regenerated by a 60 seconds injection of 10 mM Glycine pH 1.7 at flow rate of 50 μL/min. […] For this setup, 1 μg/mL of purified antibody was injected over a Protein A chip at 10 μL/min for 25-28 seconds. Data analysis for supernatant and purified samples were performed using BIAevaluation software (GE). […]
The following binders are listed with their measured Kd values.
State just the number; it will be interpreted in nM.

1) anti-IL-6 antibody, heavy chain V48I, light chain WT (antibody, IgG1, V domains shown, Full IgG1 tested; V domains derived as in m2) VH: EVQLVESGGGLVQPGGSLRLSCAASGFTFSPFAMSWVRQAPGKGLEWIAKISPGGSWTYYSDTVTGRFTFSLDTSKSTAYLQMNSLRAEDTAVYYCARQLWGYYALDIWGQGTLVTVSS VL: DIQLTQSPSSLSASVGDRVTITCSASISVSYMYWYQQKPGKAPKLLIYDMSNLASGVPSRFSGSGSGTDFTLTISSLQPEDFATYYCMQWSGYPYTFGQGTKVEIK	0.346

Exam item: Param item = anti-IL-6 antibody, heavy chain S30W, light chain WT (antibody, IgG1, V domains shown, Full IgG1 tested; V domains derived as in m2) VH: EVQLVESGGGLVQPGGSLRLSCAASGFTFWPFAMSWVRQAPGKGLEWVAKISPGGSWTYYSDTVTGRFTFSLDTSKSTAYLQMNSLRAEDTAVYYCARQLWGYYALDIWGQGTLVTVSS VL: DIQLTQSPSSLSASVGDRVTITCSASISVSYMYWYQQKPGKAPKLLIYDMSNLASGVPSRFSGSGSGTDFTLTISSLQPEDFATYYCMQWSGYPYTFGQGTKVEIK ; retrieve measured Kd.
Marked response: 0.376

Exam item: Try this binder next: anti-IL-6 antibody, heavy chain L106I, light chain WT (antibody, IgG1, V domains shown, Full IgG1 tested; V domains derived as in m2) VH: EVQLVESGGGLVQPGGSLRLSCAASGFTFSPFAMSWVRQAPGKGLEWVAKISPGGSWTYYSDTVTGRFTFSLDTSKSTAYLQMNSLRAEDTAVYYCARQLWGYYAIDIWGQGTLVTVSS VL: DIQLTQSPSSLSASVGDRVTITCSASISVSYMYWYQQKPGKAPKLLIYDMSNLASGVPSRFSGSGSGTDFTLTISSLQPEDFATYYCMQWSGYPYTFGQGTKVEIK
Marked response: 0.279

Exam item: Try this binder next: anti-IL-6 antibody, heavy chain Q99H, light chain WT (antibody, IgG1, V domains shown, Full IgG1 tested; V domains derived as in m2) VH: EVQLVESGGGLVQPGGSLRLSCAASGFTFSPFAMSWVRQAPGKGLEWVAKISPGGSWTYYSDTVTGRFTFSLDTSKSTAYLQMNSLRAEDTAVYYCARHLWGYYALDIWGQGTLVTVSS VL: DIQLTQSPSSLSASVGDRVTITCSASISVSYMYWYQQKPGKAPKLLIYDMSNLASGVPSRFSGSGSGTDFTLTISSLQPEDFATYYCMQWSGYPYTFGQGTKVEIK
Marked response: 1.94

Exam item: Try this binder next: anti-IL-6 antibody, heavy chain G102D, light chain WT (antibody, IgG1, V domains shown, Full IgG1 tested; V domains derived as in m2) VH: EVQLVESGGGLVQPGGSLRLSCAASGFTFSPFAMSWVRQAPGKGLEWVAKISPGGSWTYYSDTVTGRFTFSLDTSKSTAYLQMNSLRAEDTAVYYCARQLWDYYALDIWGQGTLVTVSS VL: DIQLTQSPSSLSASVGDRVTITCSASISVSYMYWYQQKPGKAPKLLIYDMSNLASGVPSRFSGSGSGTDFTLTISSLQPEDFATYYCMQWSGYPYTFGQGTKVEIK
Marked response: 1.33

Exam item: Try this binder next: anti-IL-6 antibody, heavy chain A105H, light chain WT (antibody, IgG1, V domains shown, Full IgG1 tested; V domains derived as in m2) VH: EVQLVESGGGLVQPGGSLRLSCAASGFTFSPFAMSWVRQAPGKGLEWVAKISPGGSWTYYSDTVTGRFTFSLDTSKSTAYLQMNSLRAEDTAVYYCARQLWGYYHLDIWGQGTLVTVSS VL: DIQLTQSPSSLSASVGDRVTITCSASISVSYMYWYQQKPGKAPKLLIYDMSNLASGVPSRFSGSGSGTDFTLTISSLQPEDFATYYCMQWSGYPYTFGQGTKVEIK
Marked response: 1.79

Where these numbers come from: patent US20240209076A1
